Target: recombinant human matrix metalloproteinase-2 (重组人基质金属蛋白酶-2) (Homo sapiens, UniProt P08253)
Construct: 该酶用0.01μM的基质金属蛋白酶-3活性位点活化; made in house; host or cells: E. coli
Sequence (P08253 110-660): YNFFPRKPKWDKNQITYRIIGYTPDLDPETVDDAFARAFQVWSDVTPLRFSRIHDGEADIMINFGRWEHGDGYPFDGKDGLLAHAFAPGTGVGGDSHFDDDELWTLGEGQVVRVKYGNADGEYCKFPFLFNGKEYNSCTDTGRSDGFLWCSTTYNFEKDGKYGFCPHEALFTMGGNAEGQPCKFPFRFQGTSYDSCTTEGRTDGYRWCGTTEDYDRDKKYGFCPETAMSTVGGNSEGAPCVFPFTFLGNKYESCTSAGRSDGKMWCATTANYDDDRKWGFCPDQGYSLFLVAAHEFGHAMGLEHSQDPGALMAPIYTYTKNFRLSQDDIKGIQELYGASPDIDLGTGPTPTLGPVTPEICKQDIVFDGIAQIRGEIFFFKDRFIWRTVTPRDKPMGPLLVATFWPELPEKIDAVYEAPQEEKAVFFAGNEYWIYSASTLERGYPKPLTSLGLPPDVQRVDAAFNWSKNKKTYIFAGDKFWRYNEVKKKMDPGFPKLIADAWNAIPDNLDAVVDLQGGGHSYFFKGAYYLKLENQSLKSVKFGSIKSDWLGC
Experiment: In vitro inhibition of matrix metalloproteinase-2 (fluorogenic peptide cleavage)
Assay type: biochemical
Settings: MMP-2; substrate Mca-Pro-Leu-Gly-Leu-Dpa-Ala-Arg-NH2; pH 7.4; 37 °C; 100 μl
reported.property: pIC50
Recall that pIC50 is obtained by taking minus log10 of the concentration measured in molar.

pIC50 reported for this sequence PEPEFHLISAFWPSLPSYLDAA [实施例1, TIMP-mimetic 22-residue peptide made by Fmoc solid-phase synthesis] : 4.12

---

molecular target: recombinant human matrix metalloproteinase-9 (重组人基质金属蛋白酶-9) (Homo sapiens, UniProt P14780); assay: In vitro inhibition of matrix metalloproteinase-9 (fluorogenic peptide cleavage); format: biochemical; details: MMP-9; same fluorogenic substrate, 10 μM final; 37 °C; 100 μl
Sequence (P14780 94-707): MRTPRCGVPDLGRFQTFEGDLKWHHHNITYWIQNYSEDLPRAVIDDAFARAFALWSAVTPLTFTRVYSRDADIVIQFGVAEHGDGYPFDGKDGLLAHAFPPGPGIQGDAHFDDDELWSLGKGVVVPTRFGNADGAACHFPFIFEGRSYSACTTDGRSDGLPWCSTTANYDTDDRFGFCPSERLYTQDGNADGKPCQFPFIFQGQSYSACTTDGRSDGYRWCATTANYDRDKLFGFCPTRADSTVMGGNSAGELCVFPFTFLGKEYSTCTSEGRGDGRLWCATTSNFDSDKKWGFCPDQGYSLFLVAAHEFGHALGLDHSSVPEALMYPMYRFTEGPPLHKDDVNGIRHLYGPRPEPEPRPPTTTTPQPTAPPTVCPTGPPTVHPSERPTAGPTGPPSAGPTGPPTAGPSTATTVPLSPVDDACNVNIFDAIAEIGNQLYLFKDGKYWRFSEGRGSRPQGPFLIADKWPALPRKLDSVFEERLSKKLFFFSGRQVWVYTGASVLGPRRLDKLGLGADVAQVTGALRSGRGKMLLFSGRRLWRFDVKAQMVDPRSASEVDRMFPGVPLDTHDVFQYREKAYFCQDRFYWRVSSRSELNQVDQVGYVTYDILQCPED
reported.property: pIC50
Recall that pIC50 is obtained by taking minus log10 of the concentration measured in molar.

pIC50 reported for this sequence PEPEFHLISAFWPSLPSYLDAA [实施例1, TIMP-mimetic 22-residue peptide made by Fmoc solid-phase synthesis] : 4.59

src = patent CN105601719A
